Data credit: the Immune Epitope Database (IEDB)

Target: HLA-A*02:03
Assay: IEDB peptide-MHC binding, purified MHC/competitive/fluorescence; filed as Kd, often an IC50 or EC50 that approximates it; bounds were set here for any values at or beyond the usual limits of such assays
Details: source organism: Pleistophora sp. LS
Recorded endpoint: Kd

Entry VELQIGWTV — recorded Kd = ≥ 20 µM

* * *

Molecular target: HLA-A*26:01
Assay: IEDB peptide-MHC binding, purified MHC/competitive/fluorescence; filed as Kd, often an IC50 or EC50 that approximates it; bounds were set here for any values at or beyond the usual limits of such assays
Conditions: source organism: Vibrio cholerae 2740-80
pKd: −log10 of the molar value.
Recorded endpoint: pKd

Entry VQPWLMVDV — recorded pKd = ≤ 4.70

* * *

Target: HLA-B*57:01
Test: IEDB peptide-MHC binding, purified MHC/direct/fluorescence; filed as Kd, often an IC50 or EC50 that approximates it; bounds were set here for any values at or beyond the usual limits of such assays
Conditions: source organism: Brucella suis 1330
pKd: −log10 of the molar value.
Recorded endpoint: pKd

Response field pKd (HLA-B*57:01) for item QAHMGIAGL : ≤ 4.70

* * *

Target: HLA-A*68:01
Experiment: IEDB peptide-MHC binding, purified MHC/competitive/radioactivity; filed as Kd, often an IC50 or EC50 that approximates it; bounds were set here for any values at or beyond the usual limits of such assays
Settings: source organism: Dengue virus 4 Philippines/H241/1956
Recorded endpoint: pKd
Expect pKd as a plain number equal to -log10 of the molar concentration.

Entry DVPSPAAAQK — recorded pKd = 6.72

Entry AVSTANIFR — recorded pKd = 7.53

Entry MTLMKGASKR — recorded pKd = 7.02

Entry NIHTAITQVR — recorded pKd = 6.78

Entry MGANFRAGR — recorded pKd = 7.33

* * *

Target: HLA-B*40:01
Assay: IEDB peptide-MHC binding, purified MHC/competitive/radioactivity; filed as Kd, often an IC50 or EC50 that approximates it; bounds were set here for any values at or beyond the usual limits of such assays
Settings: source organism: SARS coronavirus Tor2
Recorded endpoint: log10(Kd) (log10 of the value in µM)
The figures below represent log10 of Kd, where Kd is stated in µM.

Entry LEVKFNAPA — recorded log10(Kd) = 0.73

Entry EEVAIILASF — recorded log10(Kd) = 0.54

Entry CELYHYQECV — recorded log10(Kd) = 0.24

Entry SELRPDTRY — recorded log10(Kd) = 1.05

Entry SEFSSLPSYA — recorded log10(Kd) = -0.37

Entry MEVQSLAMST — recorded log10(Kd) = 0.31

Entry FERDISNVPF — recorded log10(Kd) = -1.69

* * *

Target: HLA-B*38:01
Assay: IEDB peptide-MHC binding, purified MHC/competitive/radioactivity; filed as Kd, often an IC50 or EC50 that approximates it; bounds were set here for any values at or beyond the usual limits of such assays
Conditions: source organism: Homo sapiens
Recorded endpoint: pKd
Expect pKd as a plain number equal to -log10 of the molar concentration.

Entry SHETVTIEL — recorded pKd = 5.61

* * *

Target: HLA-A*29:02
Experiment: IEDB peptide-MHC binding, purified MHC/competitive/radioactivity; filed as Kd, often an IC50 or EC50 that approximates it; bounds were set here for any values at or beyond the usual limits of such assays
Conditions: source organism: SARS coronavirus Tor2
pKd: −log10 of the molar value.
Criterion: pKd meeting or surpassing 6. Met: MET. Not met: NOT MET.

Reported pKd reaches at least 6 for MYIFFASFYY ?
MET

Reported pKd reaches at least 6 for KSAQCFKMFY ?
MET

Reported pKd reaches at least 6 for RVDFCGKGY ?
NOT MET

Reported pKd reaches at least 6 for LTDDMIAAY ?
MET

Reported pKd reaches at least 6 for LTNDNTSRY ?
MET

Reported pKd reaches at least 6 for DNAFNCTFEY ?
MET

Reported pKd reaches at least 6 for RYNTRGNTY ?
NOT MET

Reported pKd reaches at least 6 for LWLLWPVTL ?
NOT MET

Reported pKd reaches at least 6 for FYFTNDVSFL ?
MET

Reported pKd reaches at least 6 for CKDGHVETFY ?
MET

Reported pKd reaches at least 6 for FDEISMATNY ?
MET

Reported pKd reaches at least 6 for RYNLPTMCDI ?
NOT MET

Reported pKd reaches at least 6 for VFQSATKII ?
MET

Reported pKd reaches at least 6 for HFAIGLALYY ?
MET

Reported pKd reaches at least 6 for LLEKCDLQNY ?
NOT MET

* * *

Exercise: state measured pKd for each of the sequences provided.
Molecular target: HLA-A*02:06
Assay: IEDB peptide-MHC binding, purified MHC/competitive/radioactivity; filed as Kd, often an IC50 or EC50 that approximates it; bounds were set here for any values at or beyond the usual limits of such assays
Settings: source organism: Vaccinia virus WR
Expect pKd as a plain number equal to -log10 of the molar concentration.

Entry QTLISLNSM — recorded pKd = 5.12

Entry TLVKSGLTEV — recorded pKd = 7.35

Entry NVSRVVECL — recorded pKd = 5.99

Entry FVDTMSIYIA — recorded pKd = 5.96

Entry FIISTLNKI — recorded pKd = 8.23

Entry RVTTELNIV — recorded pKd = 7.34

Entry LLLENKSLTI — recorded pKd = 5.88

Entry MICCDSRIVV — recorded pKd = 7.28

Entry AVIIMAINV — recorded pKd = 7.19

Entry ATICLKNEGV — recorded pKd = 7.37

Entry RIEDMFLTSV — recorded pKd = 6.77

Entry VQTLISLNSM — recorded pKd = 6.07

Entry YIAGLKIEEI — recorded pKd = 6.87

Entry NVTYNIKPV — recorded pKd = 6.07

Entry DVCKKNLDL — recorded pKd = 4.79

Entry FIQWTGGNI — recorded pKd = 5.23

Entry IIAVFDSKL — recorded pKd = 7.01

Entry AMLKSKNINI — recorded pKd = 6.70

Entry IISSKQYPA — recorded pKd = 5.94

Entry VILKDPRIA — recorded pKd = 6.50

Entry SLKRFTHTTA — recorded pKd = 5.14

Entry NACDKHNKT — recorded pKd = 4.73

Entry FTEGKINPLL — recorded pKd = 7.07

Entry DAEFVMCLEA — recorded pKd = 4.90

Entry LITNTKSDNI — recorded pKd = 4.73

Entry ILDNLRCHSA — recorded pKd = 6.53

Entry RAAIDRQVSV — recorded pKd = 6.67

Entry FISPASISSV — recorded pKd = 8.69

Entry SIRCVKYLL — recorded pKd = 5.54

Entry FAFIDFSKST — recorded pKd = 5.85

Entry PLPCQLMYAL — recorded pKd = 5.01

Entry IISYIILFI — recorded pKd = 7.57

Entry MIYDLNAVTT — recorded pKd = 6.37

Entry PISDYSAEV — recorded pKd = 5.55

Entry TLISSDGARV — recorded pKd = 5.91

* * *

Biological target: HLA-B*27:03
Assay: IEDB peptide-MHC binding, purified MHC/competitive/fluorescence; filed as Kd, often an IC50 or EC50 that approximates it; bounds were set here for any values at or beyond the usual limits of such assays
Conditions: source organism: Vibrio antiquarius
pKd: −log10 of the molar value.
Recorded endpoint: pKd

Response field pKd (HLA-B*27:03) for item SLTIPSFYT : ≤ 4.70

* * *

Biological target: HLA-B*15:01
Assay: IEDB peptide-MHC binding, purified MHC/competitive/fluorescence; filed as Kd, often an IC50 or EC50 that approximates it; bounds were set here for any values at or beyond the usual limits of such assays
Conditions: source organism: Yersinia pestis Nepal516
Exercise: state measured Kd for each of the sequences provided.
Please state the figure in µM; there is no need to write the unit.

Entry RSSMKLLSY — recorded Kd = 0.0886

Entry MMMSTAVAF — recorded Kd = 0.541

* * *

Target: HLA-A*11:01
Assay: IEDB peptide-MHC binding, purified MHC/competitive/fluorescence; filed as Kd, often an IC50 or EC50 that approximates it; bounds were set here for any values at or beyond the usual limits of such assays
Settings: source organism: Orthomarburgvirus marburgense
Recorded endpoint: pKd
Expect pKd as a plain number equal to -log10 of the molar concentration.

Response field pKd (HLA-A*11:01) for item ALFHKVQSY : 5.71

* * *

Biological target: HLA-A*03:01
Assay: IEDB peptide-MHC binding, purified MHC/competitive/radioactivity; filed as Kd, often an IC50 or EC50 that approximates it; bounds were set here for any values at or beyond the usual limits of such assays
Settings: source organism: Lassa virus Josiah
Recorded endpoint: Kd (µM)
Please state the figure in µM; there is no need to write the unit.

Entry MLRLFDFNK — recorded Kd = 0.0846

Entry HIVGKSCPK — recorded Kd = 11

Entry GSYIALDSGR — recorded Kd = 4.23
